Items are presented alongside their recorded inhibition.
- Species: Sus scrofa
- ASSAY REMARKS: Inhibition of porcine heart Succinate-cytochrome c reductase complex 2 by measuring decrease in DCIP at 10 uM relative to control
- Type: tissue-based
Return type: number; implicit unit %.

RECORD SMILES	UNIT OF MEASURE	inhibition
COC(=O)NC/C=C\c1nc(C(=O)OCc2cccc3c2c(Cl)cn3Cc2cc(C)cc(C)c2)co1	%	27

Lab note: measured inhibition of COC(=O)NC/C=C\c1nc(C(=O)OCc2cccc3c2c(Cl)cn3Cc2ccccc2)co1 was 41

* * *

- Species: Sus scrofa
- ASSAY REMARKS: Inhibition of porcine heart Succinate-cytochrome c reductase complex 2 by measuring decrease in DCIP at 10 uM relative to control
- Assay type: tissue-based
Cut-off 30% on inhibition, inclusive. At or above means Fulfilled; below means Not fulfilled.

Task: Tell me whether inhibition is at least 30% here: COC(=O)NC/C=C\c1nc(C(=O)OCc2cccc3c2c(Cl)cn3Cc2ccccc2Cl)co1
Output: Fulfilled

Task: For this compound, is measured inhibition 30% or higher? CCCn1cc(Cl)c2c(COC(=O)c3coc(/C=C\CNC(=O)OC)n3)cccc21
Output: Not fulfilled

Task: Answer whether inhibition of COC(=O)NC/C=C\c1nc(C(=O)OCc2cccc3c2c(Cl)cn3Cc2cccc(Br)c2)co1 is greater than or equal to 30%.
Output: Fulfilled

Task: Can COC(=O)NC/C=C\c1nc(C(=O)OCc2cccc3c2c(Cl)cn3Cc2cccc(F)c2)co1 be said to have inhibition at or above 30%?
Output: Fulfilled

Task: Determine whether this compound has inhibition no lower than 30%: COC(=O)NC/C=C\c1nc(C(=O)OCc2cccc3c2c(Cl)cn3Cc2cccc(Cl)c2)co1
Output: Not fulfilled

Task: Check this compound for inhibition at or above 30%: COC(=O)NC/C=C\c1nc(C(=O)OCc2cccc3c2c(Cl)cn3Cc2ccccc2Br)co1
Output: Fulfilled

Task: Tell me whether inhibition is at least 30% here: C=CCn1cc(Cl)c2c(COC(=O)c3coc(/C=C\CNC(=O)OC)n3)cccc21
Output: Not fulfilled

Task: Tell me whether inhibition is at least 30% here: COC(=O)NC/C=C\c1nc(C(=O)OCc2cccc3c2c(Cl)cn3Cc2ccc(F)cc2F)co1
Output: Fulfilled

Task: Determine whether this compound has inhibition no lower than 30%: COC(=O)NC/C=C\c1nc(C(=O)OCc2cccc3c2c(Cl)cn3Cc2ccccc2C)co1
Output: Fulfilled

* * *

- Organism: Sus scrofa
- ASSAY REMARKS: Inhibition of porcine heart Succinate-cytochrome c reductase complex 2 by measuring decrease in DCIP at 10 uM relative to control
- Format: tissue-based
RESULT TYPE: inhibition (%)
Please give a number only; it is taken to be in %.

RECORD SMILES	UNIT OF MEASURE	RESULT VALUE
COC(=O)NC/C=C\c1nc(C(=O)OCc2cccc3c2c(Cl)cn3Cc2ccc(Cl)cc2)co1	%	31
COC(=O)NC/C=C\c1nc(C(=O)OCc2cccc3c2c(Cl)cn3Cc2ccc(F)cc2)co1	%	46
COC(=O)NC/C=C\c1nc(C(=O)OCc2cccc3c2c(Cl)cn3Cc2ccc(C)cc2)co1	%	11

Please examine the following record next.
// sample COC(=O)NC/C=C\c1nc(C(=O)OCc2cccc3c2c(Cl)cn3Cc2ccccc2F)co1 , its inhibition was 50
